All figures here come from PubChem BioAssay (NCI).

System: NCI-H522 lung
Test: NCI-60 one-dose screen, 48 h (100 = growth as untreated, 0 = no growth, -100 = all killed)
Settings: 10 µM unless noted
The panel holds about 83,000 compounds, 20% with a hit somewhere; the sample as a whole holds those more often.
recorded endpoint: growth (%)

compound: O=c1[nH]c(-c2ccccn2)nc2sc3c(c12)CCCCC3
system name: NCI-H522 lung
recorded endpoint: growth
recorded value: 20.8

compound: O=C1c2c[n+](Cc3ccccc3)ccc2-c2nc3ccccc3c3ccnc1c23
system name: NCI-H522 lung
recorded endpoint: growth
recorded value: -66.3

compound: CN1CCCCC1CCN1c2ccccc2Sc2ccc(Br)cc21 (configuration not stated)
system name: NCI-H522 lung
recorded endpoint: growth
recorded value: 62.9

compound: O=c1c2c3c(sc2n2c(CCl)nnc2n1Cc1ccccc1)CCCC3
system name: NCI-H522 lung
recorded endpoint: growth
recorded value: -57.1

compound: CC/C(=C(\c1ccc(O)cc1)c1ccc(OCCN(C)CCN(C)C(=O)CCCCC(=O)c2c(C)[nH]c(/C=C3\N=C(c4ccc[nH]4)C=C3OC)c2C)cc1)c1ccccc1
system name: NCI-H522 lung
recorded endpoint: growth
recorded value: 84.3

compound: CCCNc1nc(SC)nc(-c2cccc(N)c2)c1C#N
system name: NCI-H522 lung
recorded endpoint: growth
recorded value: 92.9

compound: CC/C=C\C[C@H](O)C/C=C1/C(=O)C=C[C@@H]1C/C=C\CCCC(=O)OC(C)C
system name: NCI-H522 lung
recorded endpoint: growth
recorded value: -54.2
